Protocol text: yeast display, Sf9 membrane polyspecificity reagent, FACS + sequencing; frameworks hold sequencing errors
Property measured: polyreactivity (PSR sort gate)

Known polyreactivity (PSR sort gate) results, listed for orientation:
Sequence text	Property measured	Endpoint result
QVQLVESGGGLVQAGGTLRLSCAASGRIISYNPMGWYRAAAGKEMELVAPINWGGGSTYYADSVKGRFTISRDNAKNTVYLQMNSLKPEDTAVYYCNADSNWYYQWNYYGLYDYWGQGTQVTVSS	polyreactivity (PSR sort gate)	low polyreactivity
QVQLVESGGGLVQAGGSLRLSCAASGNIFAPNAMGWDRQAPGKERELVAAISRSGGSTHYADSVKGRFTISRDNAKNTVYLQMNSLKPEDTAVYYCAAGWYGRYTSKMGYWGQGTQVTVSS	polyreactivity (PSR sort gate)	high polyreactivity
QVQLVESGGGLVQAGGSLRLSCAASGRIFNYNAMGWYRQAPGKERELVAAITRSTGNTYYADSVKGRFTISRDNAKNTVYLQMNSLKPEDTAVYYCAAAYAYWRKYDYWGQGTQVTVSS	polyreactivity (PSR sort gate)	high polyreactivity
QLQLVESGGGLVQAGGSLRLSCAASGSIYWRNAMGWYRQAPGKERELVAAITSGGSTYYADSVKGRFTISRDNAKNTVYLQMNSLKPEDTAVYYCAAGYSYRYGYWGQGTQVTVSS	polyreactivity (PSR sort gate)	low polyreactivity
QVQIEESGGGLVQERGSLRLSCAAYGRIFDLYAMGWNRQAPGKERELVATISGSGGSTYYADSVKGRFTISRDTAKNTVYLQMNSLKPEDTAVYNCAAVSVSSWYDYWGQGTQVTVSS	polyreactivity (PSR sort gate)	low polyreactivity
QVQLVESGGGLVQAGGSLRLSCAASGYIFRYYAMGWYRQAPGKERELVAAISWNGGRTYYADSVKGRFTISRDNAKNTVYLQMNSLKPEDTAVYYCNTYWDGAREYDYWGQGTQVTVSS	polyreactivity (PSR sort gate)	high polyreactivity
QVQLVESGGGLVQAGGSLRLSCAASGSIFSFYAMGWYRQAPGKERELVAGIDISGGSTYYADSVKGRFTISRDNAKNTVYLQMNSLKPEDTAVYYCAAAKRTDYFYFVAKSGFRYYSWGQGTQVTVSS	polyreactivity (PSR sort gate)	high polyreactivity
QVQLGESGGGLVQAGGSLRLSCAASGSTLYPYAMGWNRQATGTERELFAAISWSGTRTYYADSVKGRFTISRDNAKNTVYLQMNSLKQEDTAVYYCAKSRTRYPSNTKYDYWGQGTQVTVSS	polyreactivity (PSR sort gate)	high polyreactivity

Param item = QVQLVESGGGLVQAGGSLRLSCSDSGFTFARYTMGWYRQPPGKESELVAGISRSTGRTYYADSVKGLFTISRDNAKNTVYLQMNSLKPEDTAVYYCAARATRSLSRSMDYWGQGTQVTVSS ; retrieve measured polyreactivity (PSR sort gate). high polyreactivity

How about QVQLVESGGGLVQEGGSLRLSCAASGSTFDIYAMGWYRQAPGKERELVAAIRGRGGSTYYADSVKGRFTISRDNGKNTVYLQMNSLKPEDTAVYYCAADSYATRYYYWGQGTQVTVSS ? high polyreactivity

How about QVQLVESGGGLVQAGGSLRLSCAASGSIFKKYAMGWYRQAPGKERELVAAISSVGGTYYADSVKGRFTISRDNAKNTVYLQMNSLKPEDTAVYYWYTDGYVGSIRSGLYIYDYWGQGTQVTVSS ? low polyreactivity

How about LDQLVESGGGLVQAGGSLRLSCAASGSIFGPNAMGWNRKAPGKERELVAAISWSGASTYYADSVKGRFTITRDNEKNTVYLQMNSLKPEDTAVYYCAADYYGVSGSGYGYWGQGTQVTVSS ? low polyreactivity

How about QVQLVESGGGLVQAGGRLRLSCAASGGIFVSYAMGWYRQSPGKEREMVAAITSGGGTSYADSVKGRFTISRDNAKNTVYLQMNSLKPEDTEVYYCAARFMWSVFGRKGGYWGQGTQVTVSS ? low polyreactivity

How about QVQLVESGGGLVQAGGSLRLSCAASGRTLGHNAMGWYRPAPGKERELVAAITSRGGTTYADSVKGRFTISRDNAKKTVYLQMNSLKPEETAVYYCAARVSGSRKYYYWGQGTQVTVSS ? high polyreactivity

How about QVQLVESGGGLVQAGGSLRLSSAATGSTSYNDMGWYRQATGKQRELGASITSSGDDTYYADSVKGRFTISRDNAKNTVYLQMNSLKPEDNAVYYCAAEDYHRHVGSYYVIDYDYWGQGTQVTVSS ? low polyreactivity
